# ASSAY_SYSTEM: T1, human PD-L2 (full-length, on cells) (human, UniProt Q9BQ51 20-273)
# T1 chain: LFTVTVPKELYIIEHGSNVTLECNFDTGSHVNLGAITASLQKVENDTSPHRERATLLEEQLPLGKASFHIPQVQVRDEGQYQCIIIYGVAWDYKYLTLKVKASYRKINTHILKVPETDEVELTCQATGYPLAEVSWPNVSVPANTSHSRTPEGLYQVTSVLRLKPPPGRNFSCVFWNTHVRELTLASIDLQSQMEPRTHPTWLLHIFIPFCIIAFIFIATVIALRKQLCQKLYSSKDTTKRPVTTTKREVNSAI
# ASSAY_PROCEDURE: FACS blocking of PD-1 binding to CHO-K1/hPD-L2; high antigen concentration
For each record, write down the corresponding IC50.

Notebook: 19C3-B3 (antibody, V domains shown, Both formats under this entry; also called 19C3-C3) VH: QVQLVESGGGVVQPGRSLRLSCAASGFAFSAYGMHWVRQAPGKGLEWVAISWYDGSNNYHADSVKGRFTISRDSSKNTLYLQMNSLRAEDTAVYYCAKSIGVARHYYYGMDVWGQGTTVTVSS VL: SYELTQPPSVSVSPGQTASITCSGEELGDKYACWYQQKPGQSPLLVIYQDSKRPSGIPERFSGSNSGNAATLTISGTQAMDEADYYCQAWDSITVIFGGGTKLTVLG , IC50 read as 0.454 nM

Notebook: 8B5-B1 (antibody, V domains shown, Both formats under this entry) VH: EVQLLESGGGLVQPGGSLKLSCAASGFTFSSYAMFWVRQAPGEGLAWVSAITGSGDHTYYADSVKDHFTISRDNSKNTLYLQMNSLKAEDTAVYYCAKDASGNSYGFPYWYFDLWGRGTLVTVSS VL: QSALTQPASVSGSPGQSITISCTGTSSDVAGYNFVSWYQHHPGKTPKLMIYDVTNRPSGVSTRFSGSKSGNTASLTISGLQAEDEADYYCSSFTSATTLVFGGGTKLTVLG , IC50 read as 2.02 nM

Notebook: 1A1-C2 (antibody, V domains shown) VH: QVQLQESGPGLVKPSGTLSLTCAVSGGSIGSSYWWTWIRQSPGKGLEWIGEIFHSGPTNYTPSLKSRVTISVDKSKNQFSLQLRSVTAADTAVYYCARTTGTTGFYYGMDVWGQGTTVTVSS VL: EVVLTQSPATLYVTPGERVTLSCRASQSVSSNLAWYQQKPGQAPRLLIYGASTRATGIPARFSGSGSGTEFTLTISSLQSEDFAVYYCQQFNNWPRTFGLGTKVEIT , IC50 read as 0.706 nM

Notebook: 2C4-E4 (antibody, V domains shown, Both formats under this entry) VH: QVQLVQSGAEVKKPGASVKVSCKASGYTFTGYVMHWVRQAPGQRLEWMGWINADNGITKYSQKFQGRVTITRDTSASTAYMELTNLRSEDTAVYYCARATRGFGEFYFDYWGQGNLVTVSS VL: DIQMTQSPSTLSASVGDRVTITCRASQTISSWLAWYQQKPGKAPNLLIYKASSLESGVPSRFSGSGSGTEFTLTISSLQPDDFATYYCQQYYSYWTFGQGTKVEIK , IC50 read as 0.612 nM
